- Test system: SKOV3
- Experiment Summary: Primary qHTS to identify gynecologic anti-cancer compounds using libraries of approved drugs and bioactive compounds (AID 1345084); note: nearly all actives have a fitted effect of over 55% in size
- Condition Parameters: Gynecologic cancer cell panel viability, ATPlite luminescence, 48 h; series mostly up to 57.5 µM
Records with an inconclusive call do not appear. Activity calls are given as the source filed them. Calls come from the whole dose curve; as a rule, active = well fitted cell-killing curve with a large enough effect; inconclusive = small, poorly fitted or top-dose-only effect, or effect the other way; inactive = flat fitted curve, though single readings scatter.
Would you mind answering with one of these outcomes? yes (1) for active, no (0) for inactive

# Compound, Assayed Target, Category Label
measured = [
    ("CC(C)=CCC[C@](C)(O[C@@H]1O[C@H](CO[C@@H]2OC[C@@H](O)[C@H](O)[C@H]2O)[C@@H](O)[C@H](O)[C@H]1O)[C@H]1CC[C@]2(C)[C@@H]1[C@H](O)C[C@@H]1[C@@]3(C)CC[C@H](O[C@@H]4O[C@H](CO)[C@@H](O)[C@H](O)[C@H]4O)C(C)(C)[C@@H]3CC[C@]12C", "SKOV3", "no (0)"),
    ("CN1CCN(C2=Nc3ccccc3Nc3ccc(Cl)cc32)CC1", "SKOV3", "no (0)"),
    ("Cn1ncnc1[C@@H]1c2n[nH]c(=O)c3cc(F)cc(c23)N[C@H]1c1ccc(F)cc1", "SKOV3", "no (0)"),
    ("COc1ccc(C[C@H]2COC(=O)[C@@H]2Cc2ccc(O[C@@H]3O[C@H](CO)[C@@H](O)[C@H](O)[C@H]3O)c(OC)c2)cc1OC", "SKOV3", "yes (1)"),
    ("CC(=O)OC1C(=O)C2C3OCC4=C3[C@@](C)(CC[C@@H]4O)CC[C@]2(C)[C@H]1C(C)C (stereo not given in full)", "SKOV3", "no (0)"),
]

[ask] Per the assay record, what outcome was assigned to CNCCCC1(c2ccccc2)OC(C)(C)c2ccccc21 (stereo not given) ?
[reply] no (0)

[ask] Next: COc1ccc2cc(-c3cc(-c4cc(Cl)cc(Cl)c4)nn3C(C)c3ccc(C(=O)NCCC(=O)O)cc3)ccc2c1 (stereo not given)
[reply] no (0)

* * *

- System: KB-3-1
- Experiment Summary: Cytotoxic Profiling of Annotated Libraries Using Quantitative High-Throughput Screening (AID 1296008); note: % is set by controls: 0 for no effect and ±100 for the full control effect; nearly all actives have a fitted effect of over 60% in size
- Condition Parameters: Five cell lines viability, CellTiter-Glo ATP luminescence, 48-72 h; active compounds read low
Results filed as inconclusive are left out.
Measured Property: max response (%)
Your answer is read as %, so omit the unit and give the number.

Below are worked cases with known answers.
# Compound, Readout Value
rows = [
    ("CCC(CC)(NC(=O)C(C)C)C(=O)N[C@@H](CCCN=C(N)N)C(=O)NC1(C(=O)NC(c2ccc(F)cc2)c2ccc(F)cc2)CCCC1", 7.28),
    ("COC(=O)c1sccc1S(=O)(=O)Nc1ccc(Nc2ccccc2)cc1OC", -21.5),
]

[ask] Given the entry C=C1CCC2C(C)(C)CCCC2(C)C1CC/C(C)=C\CO (centres undefined) , report its measured max response.
[reply] 1.75

[ask] Next: CCC(C)c1ccc(NC(=O)Cn2cnc3c2c(=O)n(C)c(=O)n3C)cc1 (centres undefined)
[reply] -2.48

[ask] Next: CCC(C)(C)OC(=O)N[C@@H](Cc1c[nH]c2ccccc12)C(=O)N[C@@H](CCSC)C(=O)N[C@@H](CC(=O)O)C(=O)N[C@@H](Cc1ccccc1)C(N)=O
[reply] 0.713

[ask] Next: O=c1[nH]c([C@@H]2CCCN2)nc2c1oc1ccc(Cl)cc12
[reply] -19.5

[ask] Next: C=C1C(=O)O[C@@H]2/C=C(\C)CC/C=C(\C)CC[C@@H]12
[reply] -12.1

[ask] Next: C[C@H]1CO[C@@H]2Cn3cc(C(=O)NCc4ccc(F)cc4F)c(=O)c(O)c3C(=O)N12
[reply] -18.7

[ask] Next: C=C(C)[C@@H]1CC[C@]2(C(=O)O)CC[C@]3(C(=O)O)[C@H](CCC4[C@@]5(C)CCC(=O)C(C)(C)C5CC[C@]43C)C12 (some centres undefined)
[reply] 4.42

[ask] Next: Cc1ccc(CNc2ncnc3ccc(-c4ccc(CO)o4)cc23)o1
[reply] 8.1

* * *

- Assayed Target: Calcium and integrin-binding protein 1 (Homo sapiens) (UniProt Q99828)
- Sequence (Q99828 whole entry, looked up): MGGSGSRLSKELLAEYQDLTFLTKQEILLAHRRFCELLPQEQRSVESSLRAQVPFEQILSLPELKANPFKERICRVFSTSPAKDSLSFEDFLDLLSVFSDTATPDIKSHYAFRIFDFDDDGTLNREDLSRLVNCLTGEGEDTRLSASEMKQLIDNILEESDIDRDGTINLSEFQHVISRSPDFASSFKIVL
- Experiment Summary: Primary qHTS for Identification of Calcium Integrin Binding Protein 1 (CIB1) Competitor (AID 1508620);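 note: GST tagged CIB1 binding a fluorescein labelled alphaIIb integrin peptide tracer; top concentration of the series differs between compounds; % is set by controls: 0 for no effect and ±100 for the full control effect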
- Condition Parameters: CIB1-GST / FITC-alphaIIb peptide fluorescence polarization; series mostly up to 114 µM
Records with an inconclusive call do not appear. Active and inactive are the calls of the source. Calls follow the shape of the dose curve; as a rule, active = well fitted inhibition curve with a large enough effect; inconclusive = small, poorly fitted or top-dose-only effect; inactive = flat fitted curve, though single readings scatter.
Measured Property: activity change, negative = inhibition

Below are worked cases with known answers.
# Compound, Assayed Target, Measured Property, Readout Value
data = [
    ("COC(=O)N1CCC(n2ncc3c(N4CCOCC4)nc(-c4ccc(NC(=O)NC5CC5)cc4)nc32)CC1", "Calcium and integrin-binding protein 1 (Homo sapiens) (UniProt Q99828)", "activity change, negative = inhibition", "inactive"),
    ("COc1cc2ncnc(Oc3ccc(CC(=O)Nc4cnn(C(C)C)c4)cc3)c2cc1OC", "Calcium and integrin-binding protein 1 (Homo sapiens) (UniProt Q99828)", "activity change, negative = inhibition", "inactive"),
    ("COc1ccc(C#Cc2ccc(C(=O)N3CCC[C@@H](CO)C3)cc2)cc1", "Calcium and integrin-binding protein 1 (Homo sapiens) (UniProt Q99828)", "activity change, negative = inhibition", "inactive"),
    ("CC(C)c1ccc(-c2cc(=O)c3ccccc3o2)cc1", "Calcium and integrin-binding protein 1 (Homo sapiens) (UniProt Q99828)", "activity change, negative = inhibition", "inactive"),
    ("C/C=C(/C)C(=O)O[C@H]1[C@H](OC(=O)/C(C)=C\\C)[C@@]23C(CC1(C)C)[C@]1(CCC4[C@@]5(C)CC[C@H](O[C@@H]6O[C@H](C(=O)O)[C@@H](O)[C@H](O[C@@H]7O[C@H](CO)[C@H](O)[C@H](O)[C@H]7O[C@@H]7O[C@@H](C)[C@H](O)[C@@H](O)[C@H]7O[C@@H]7OC[C@@H](O)[C@H](O)[C@H]7O)[C@H]6O[C@@H]6O[C@H](CO)[C@H](O)[C@H](O)[C@H]6O)C(C)(C)C5CC[C@@]4(C)[C@]1(C)C[C@H]2O)O[C@H]3O (stereo partly specified)", "Calcium and integrin-binding protein 1 (Homo sapiens) (UniProt Q99828)", "activity change, negative = inhibition", "-2.7% [at 12.4 µM] (inactive)"),
    ("COc1cc2c(cc1NS(=O)(=O)c1ccc(Br)cc1C)n(C)c(=O)n2C", "Calcium and integrin-binding protein 1 (Homo sapiens) (UniProt Q99828)", "activity change, negative = inhibition", "inactive"),
]

[ask] Given the entry Cc1cc(F)ccc1-c1nc(NCCN=C(N)NC#N)nc2c1ccc(=O)n2-c1c(F)cccc1F , report its measured activity change, negative = inhibition.
[reply] inactive

[ask] Next: C=C(C)C(=O)O[C@H]1/C(C=O)=C\CC/C(CO)=C/[C@H]2OC(=O)C(=C)[C@@H]2[C@@H]1OC
[reply] inactive

[ask] Next: Nc1ncnc2c1c(-c1ccc(Cl)cc1)nn2-c1cccc(-c2cnnn2Cc2cccc(-c3ccccc3)c2)c1
[reply] inactive

[ask] Next: O=C(Nc1ccc(-c2ccc(Cl)c(Cl)c2)cc1)C1=C(O)c2ccccc2S(=O)(=O)N1
[reply] inactive

[ask] Next: CCNC(=O)c1noc(-c2cc(Cl)c(O)cc2O)c1-c1ccc(OC)cc1
[reply] inactive

[ask] Next: C=C1C(=O)O[C@H]2CC(=C)[C@H]3CC[C@@](C)(O)[C@@H]3CC12 (stereo partly specified)
[reply] inactive

* * *

- System: Es-2
- Experiment Summary: Primary qHTS to identify gynecologic anti-cancer compounds using libraries of approved drugs and bioactive compounds (AID 1345084); note: nearly all actives have a fitted effect of over 55% in size
- Condition Parameters: Gynecologic cancer cell panel viability, ATPlite luminescence, 48 h; series mostly up to 57.5 µM
Results filed as inconclusive are left out. Calls of active or inactive are those of the source. Calls follow the shape of the dose curve; as a rule, active = well fitted cell-killing curve with a large enough effect; inconclusive = small, poorly fitted or top-dose-only effect, or effect the other way; inactive = flat fitted curve, though single readings scatter.
Would you mind answering with one of these outcomes? active, inactive

# Compound, Category Label
records = [
    ("CCC(=C(c1ccc(OCCN2CCCC2)cc1)c1ccc(OCCN2CCCC2)cc1)c1ccccc1", "inactive"),
    ("CCCc1ccc(OCC(=O)N(Cc2nc(-c3cccnc3)no2)C(C)C)cc1", "inactive"),
    ("C[C@@H](c1ccc2nccn2c1)n1nnc2ncc(-c3cnn(C)c3)nc21", "inactive"),
    ("C=C1CCCC2(C)CCC(C(C)(C)OC3OC(C)C(O)C(O)C3OC(=O)/C(C)=C\\C)CC12 (stereo not given)", "inactive"),
    ("COc1ccc(C#Cc2ccc(C(=O)N3CCC[C@@H](CO)C3)cc2)cc1", "inactive"),
    ("C=C1C(=O)O[C@@H]2/C=C(\\C)CC/C=C(\\C)CC[C@@H]12", "inactive"),
]

[ask] Per the assay record, what outcome was assigned to CC(=O)C1=C(O)C=C2Oc3c(C(C)=O)c(O)c(C)c(O)c3[C@]2(C)C1=O ?
[reply] inactive

[ask] Next: Cc1cccc(N2CCN(C(=O)c3cc(S(=O)(=O)N(C)C)ccc3N3CCCC3)CC2)c1C
[reply] inactive

[ask] Next: CC1(C)CCC(C)(C)c2cc(C#Cc3ccc(C(=O)O)cc3)ccc21
[reply] inactive

[ask] Next: COc1ccc(-c2ccc3c(N4CCOCC4C)nc(N4CCOCC4C)nc3n2)cc1CO (stereo not given)
[reply] active
